Quick reference for GI50 among some compounds
# System: HL-60(TB) leukemia
# Assay summary: NCI tumour cell line growth inhibition, 48 h
Measured quantity: GI50

[[record]]
compound = "Oc1c(CN2CCCC2)cc(COCc2ccccc2)c2cccnc12"
reported_result = "2.52 µM"

[[record]]
compound = "Cn1c(=O)c2[nH]c(COc3ccc(C(C)(C)C)cc3)nc2n(C)c1=O"
reported_result = "10.6 µM"

[[record]]
compound = "COc1ccc2c(c1)OC13Oc4cc(OC)ccc4C=C1CCCC3=C2"
reported_result = "> 100 µM"

[[record]]
compound = "Fc1ccc(-c2ncn(C3CCNCC3)c2-c2ccnc(Oc3cccc(F)c3)n2)cc1"
reported_result = "> 16.6 µM"

[[record]]
compound = "C[Se]C(=O)CC1=C2C=C(F)C=CC2/C(=C\\c2ccc(S(C)=O)cc2)C1C (stereo not given)"
reported_result = "0.416 µM"


Hey, just so you know, these numbers are from PubChem BioAssay (NCI).
